Listed below: Rate of emerging of true leaf (%) values for each entry.
Test system: Arabidopsis thaliana (K31-4-2) transformed with a Kasalath-derived CYP72A31 gene
Assay explanation: Drug sensitivity test on drug-containing MS medium, Arabidopsis thaliana transformed with Kasalath-derived CYP72A31 gene
Type: in vivo
Condition info: K31-4-2, drug 110 nM, day 14 after seeding

| Compound | Rate of emerging of true leaf (%) |
| --- | --- |
| COc1cc(OC)nc(NC(=O)NS(=O)(=O)c2ncccc2C(=O)N(C)C)n1 | 100 |
| COc1cc(OC)nc(NC(=O)NS(=O)(=O)c2c(Cl)nc3ccccn23)n1 | 90 |
| CON=C(C)c1cccc(Oc2nc(OC)cc(OC)n2)c1C(=O)O | 100 |
| CCCc1ccc2nc(Cl)c(S(=O)(=O)NC(=O)Nc3nc(OC)cc(OC)n3)n2n1 | 0 |
| CCOC(=O)c1cnn(C)c1S(=O)(=O)NC(=O)Nc1nc(OC)cc(OC)n1 | 0 |
| COc1cc(OC)nc(Oc2cccc(Oc3nc(OC)cc(OC)n3)c2C(=O)O)n1 [BS, bispyribac sodium] | 100 |
